# credit: the supplement of paper PMC8253809

system: HGGX42 (H3.3 G34R paediatric high-grade glioma line); assay: maximal growth inhibition (yFin) relative to DMSO / staurosporine; higher = more efficacious
Value Type: maximal growth inhibition (%)
Answer in %, number only, no unit symbol.

Ask: Give its maximal growth inhibition value. Item: CCN(CC)CCNC(=O)c1c(C)[nH]c(/C=C2\C(=O)Nc3ccc(F)cc32)c1C
Reply: 112

Ask: Give its maximal growth inhibition value. Item: CS[C@H]1SC[C@H]2C(=O)N(C)[C@@H](C(C)C)C(=O)OC[C@@H](NC(=O)c3cnc4ccccc4n3)C(=O)N[C@@H](C)C(=O)N(C)[C@@H]1C(=O)N(C)[C@@H](C(C)C)C(=O)OC[C@@H](NC(=O)c1cnc3ccccc3n1)C(=O)N[C@@H](C)C(=O)N2C
Reply: 76.3

Ask: Give its maximal growth inhibition value. Item: O=C(Nc1ccc(Nc2nccc(Nc3cc(C4CCCC4)[nH]n3)n2)cc1)Nc1cccc(C(F)(F)F)c1
Reply: 102

Ask: Give its maximal growth inhibition value. Item: CCCCc1oc2ccc(NS(C)(=O)=O)cc2c1C(=O)c1ccc(OCCCN(CCCC)CCCC)cc1
Reply: 119

Ask: Give its maximal growth inhibition value. Item: CC(C)c1c2cc(-c3ccnc(NC4CCC(NC5CCOCC5)CC4)n3)ccc2nn1C (stereo not given)
Reply: 82

Ask: Give its maximal growth inhibition value. Item: CN(C)C/C=C/C(=O)Nc1ccc(C(=O)Nc2cccc(Nc3ncc(Cl)c(-c4c[nH]c5ccccc45)n3)c2)cc1
Reply: 110

Ask: Give its maximal growth inhibition value. Item: CCCS(=O)(=O)c1nc(NC2CC2)cc(-c2ccc3c(ccn3C3CC(C)(C)NC(C)(C)C3)c2)n1
Reply: 88.2

Ask: Give its maximal growth inhibition value. Item: CO[C@H]1C[C@@H]2CC[C@@H](C)[C@@](O)(O2)C(=O)C(=O)N2CCCC[C@H]2C(=O)O[C@H]([C@H](C)C[C@@H]2CC[C@@H](OCCO)[C@H](OC)C2)CC(=O)[C@H](C)/C=C(\C)[C@@H](O)[C@@H](OC)C(=O)[C@H](C)C[C@H](C)/C=C/C=C/C=C/1C
Reply: 95.7

Ask: Give its maximal growth inhibition value. Item: CC(C)c1cc(C(=O)N2Cc3ccc(CN4CCN(C)CC4)cc3C2)c(O)cc1O
Reply: 65

Ask: Give its maximal growth inhibition value. Item: COc1cc(F)ccc1-c1ncnc(Nc2cccc(CS(C)(=N)=O)c2)n1 (stereo not given)
Reply: 67

Ask: Give its maximal growth inhibition value. Item: CC(=O)Nc1cccc(-n2c(=O)n(C3CC3)c(=O)c3c(Nc4ccc(I)cc4F)n(C)c(=O)c(C)c32)c1
Reply: 46.1

Ask: Give its maximal growth inhibition value. Item: CC(=O)c1cc([N+](=O)[O-])c(Sc2ccc(F)cc2F)s1
Reply: 108

Ask: Give its maximal growth inhibition value. Item: O=C(Nc1ccccc1-c1cn2c(CN3CCNCC3)csc2n1)c1cnc2ccccc2n1
Reply: 102

Ask: Give its maximal growth inhibition value. Item: COc1cccc2c1C(=O)c1c(O)c3c(c(O)c1C2=O)C[C@@](O)(C(=O)CO)C[C@@H]3O[C@H]1C[C@H](N)[C@H](O)[C@H](C)O1
Reply: 96.5

Ask: Give its maximal growth inhibition value. Item: c1ccc2c(-c3cnn4cc(-c5ccc(N6CCNCC6)cc5)cnc34)ccnc2c1
Reply: 102
